Tested System: T1, TRAF2(NC)-CA21 (human)
T1 sequence: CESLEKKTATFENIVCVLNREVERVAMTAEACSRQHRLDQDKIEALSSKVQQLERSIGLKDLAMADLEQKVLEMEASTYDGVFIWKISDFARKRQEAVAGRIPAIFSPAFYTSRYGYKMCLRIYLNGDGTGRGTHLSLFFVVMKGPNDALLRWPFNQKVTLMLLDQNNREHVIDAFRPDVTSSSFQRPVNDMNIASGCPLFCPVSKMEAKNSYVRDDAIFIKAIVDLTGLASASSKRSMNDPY
Method Summary: flashplate competition assay, inhibition of TRAF2(NC)-CA21 binding to biotin-CD40c
pIC50: −log10 of the molar value.
Readout Kind: pIC50

Binder: Ac-PVQET-NH2 [AcPVQET-NH2]
Recorded Number: 4.05

(P) Ac-IQET-NH2 [AcIQET-NH2]
(Q) Ac-PIQET-NH2 [AcPIQET-NH2]
Incoming: Return label of the item with the larger pIC50. Candidates: P , Q . State your choice using its label.
Outgoing: Q
